Catalogue of molecules with associated IC50
Test system: MDA-MB-231 human breast cancer cells
Test: Cell proliferation assay (CellTiter-Glo, 72 hours treatment)
Format: cell-based
Details: Homo sapiens; MDA-MB-231 cells, 72 hours at 37° C., CellTiter-Glo; read-out: MDA-MB-231 cell proliferation assay (IC50)
Procedure: Human tumor cell lines were cultured in the appropriate media (DMEM and RPMI) supplemented with penicillin G (100 U/ml), streptomycin (100 μg/ml), 10% FBS in a humidified atmosphere of 5% CO2 maintained at 37° C. Exponentially growing cells were seeded at 2,500 cells/well in 96 well plates prior to drug treatment. […] Following compound treatment, cell proliferation was assessed by CellTiter-Glo assay (Promega, Madison Wis.) according to the manufacturer's protocol. […]
MEASUREMENT_KIND: IC50

- COc1cncc2c1[C@]1(O)[C@H](O)[C@H](S(=O)(=O)CC(F)(F)F)[C@@H](c3ccccc3)[C@]1(c1ccc(Br)cc1)O2 (racemic) [117F]: > 1000 nM
- COC(=O)[C@H]1[C@@H](O)[C@@]2(O)c3c(cc(Cl)nc3OC)O[C@@]2(c2ccc(Br)cc2)[C@@H]1c1ccccc1 (racemic) [136F]: < 100 nM
- O=S(=O)(c1ccccn1)[C@H]1[C@@H](O)[C@@]2(O)c3ncc(Cl)cc3O[C@@]2(c2ccc(Br)cc2)[C@@H]1c1ccccc1 (racemic) [163F]: 100 to 1000 nM
- CN(C)C[C@@H]1[C@@H](O)[C@@]2(O)c3ncc(Cl)cc3O[C@@]2(c2ccc(C(F)F)cc2)[C@@H]1c1ccccc1 (single isomer, unassigned) [108F]: 100 to 1000 nM
- COc1cncc2c1[C@]1(O)[C@@H](CNCc3ccncc3)[C@H](CO)[C@@H](c3ccccc3)[C@]1(c1ccc(Br)cc1)O2 (racemic) [187F]: < 100 nM
- COc1cncc2c1[C@]1(O)[C@H](O)[C@H](C(=O)N3CC(F)(F)C3)[C@@H](c3ccccc3)[C@]1(c1ccc(Br)cc1)O2 (racemic) [121F]: 100 to 1000 nM

====

tested on: MDA-MB-231 human breast cancer cells; assay: Cell proliferation assay (CellTiter-Glo, 72 hours treatment); assay type: cell-based; conditions: Homo sapiens; MDA-MB-231 cells, 72 hours at 37° C., CellTiter-Glo; read-out: MDA-MB-231 cell proliferation assay (IC50)
pIC50: −log10 of the molar value.
Reported pIC50 values are given for each entry in this list.
MEASUREMENT_KIND: pIC50

• COc1cncc2c1[C@]1(O)[C@H](O)[C@H](CNCC(C)(C)O)[C@@H](c3ccccc3)[C@]1(c1ccc(C#N)cc1)O2 (single isomer, unassigned) [254F] = > 7.00
• COc1nccc2c1[C@]1(O)[C@H](O)[C@H](CN(C)C)[C@@H](c3ccccc3)[C@]1(c1ccc(C#N)cc1)O2 (racemic) [141F] = 6.00 to 7.00
• COc1cncc2c1[C@]1(O)[C@@H]3OC(=O)N[C@@H]3[C@@H](c3ccccc3)[C@]1(c1ccc(C(F)F)cc1)O2 (racemic) [269F] = > 7.00
• COc1ccc([C@@]23Oc4cc(OC)cnc4[C@]2(O)[C@H](O)[C@H](C(=O)N(C)C)[C@H]3c2ccccc2)cc1 (racemic) = 6.00 to 7.00
• COCCN(C)C[C@H]1[C@@H](O)[C@@]2(O)c3c(OC)cncc3O[C@@]2(c2ccc(C#N)cc2)[C@@H]1c1ccccc1 (single isomer, unassigned) [261F] = > 7.00
• COc1cncc2c1[C@]1(O)[C@@H](CN(C)C)[C@H](CO)[C@@H](c3ccccc3)[C@]1(c1ccc(C#N)cc1)O2 (racemic) [206F] = > 7.00
